Reported IC50 values are given for each entry in this list.
Biological target: FGFR3 enzyme (Millipore) (Homo sapiens (Human))
Sequence (P22607 23-806): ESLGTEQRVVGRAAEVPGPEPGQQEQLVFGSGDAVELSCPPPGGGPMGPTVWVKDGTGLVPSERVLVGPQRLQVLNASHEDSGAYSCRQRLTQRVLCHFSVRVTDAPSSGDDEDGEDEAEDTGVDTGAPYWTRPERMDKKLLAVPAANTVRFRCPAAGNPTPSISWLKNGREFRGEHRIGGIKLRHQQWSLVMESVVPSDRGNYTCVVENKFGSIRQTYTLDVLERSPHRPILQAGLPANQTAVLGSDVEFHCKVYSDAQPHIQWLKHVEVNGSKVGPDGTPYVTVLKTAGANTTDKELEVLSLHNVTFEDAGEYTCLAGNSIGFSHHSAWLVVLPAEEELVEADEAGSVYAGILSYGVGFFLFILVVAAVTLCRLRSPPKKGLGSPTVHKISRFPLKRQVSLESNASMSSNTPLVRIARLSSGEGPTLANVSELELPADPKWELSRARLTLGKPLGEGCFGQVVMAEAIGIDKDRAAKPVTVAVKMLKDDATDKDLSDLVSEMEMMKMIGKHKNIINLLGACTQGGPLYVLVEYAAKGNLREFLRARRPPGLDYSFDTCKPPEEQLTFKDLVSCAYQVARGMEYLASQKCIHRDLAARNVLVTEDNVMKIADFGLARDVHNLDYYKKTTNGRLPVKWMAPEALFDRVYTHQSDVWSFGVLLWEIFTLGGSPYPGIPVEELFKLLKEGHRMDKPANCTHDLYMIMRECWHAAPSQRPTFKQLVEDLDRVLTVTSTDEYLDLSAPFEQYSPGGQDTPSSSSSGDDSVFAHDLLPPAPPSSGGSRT
Assay: biochemical

- Molecule: "COc1cc(CCc2cnc3[nH]c(-c4ccc(CC#N)cc4)cc3n2)cc(OC)c1"
  IC50: "100 to 500 nM"

Challenge: Find the recorded IC50 belonging to COc1cc(CCc2cnc3[nH]c(-c4ccc(NC(C)=O)nc4)cc3n2)cc(OC)c1 and report it.
Response given: 100 to 500 nM

Challenge: Entry to check: CNC(=O)c1ccc(-c2cc3nc(CCc4cc(OC)cc(OC)c4)cnc3[nH]2)cn1
Response given: 100 to 500 nM

Challenge: One more molecule: COc1cc(CCc2cnc3[nH]c(-c4cnn(CCO)c4)cc3n2)cc(OC)c1
Response given: 100 to 500 nM

Challenge: Let us now turn to COc1cc(CCc2cnc3[nH]c(-c4ccc(C(=O)N(C)C)nc4)cc3n2)cc(OC)c1
Response given: 100 to 500 nM

Challenge: Try the molecule COc1cc(CCc2cnc3[nH]c(-c4ccccc4C#N)cc3n2)cc(OC)c1
Response given: 500 to 2700 nM

* * *

What follows is a collection of IC50 values obtained with FGFR1 (Homo sapiens (Human)).
Sequence (P11362 22-822): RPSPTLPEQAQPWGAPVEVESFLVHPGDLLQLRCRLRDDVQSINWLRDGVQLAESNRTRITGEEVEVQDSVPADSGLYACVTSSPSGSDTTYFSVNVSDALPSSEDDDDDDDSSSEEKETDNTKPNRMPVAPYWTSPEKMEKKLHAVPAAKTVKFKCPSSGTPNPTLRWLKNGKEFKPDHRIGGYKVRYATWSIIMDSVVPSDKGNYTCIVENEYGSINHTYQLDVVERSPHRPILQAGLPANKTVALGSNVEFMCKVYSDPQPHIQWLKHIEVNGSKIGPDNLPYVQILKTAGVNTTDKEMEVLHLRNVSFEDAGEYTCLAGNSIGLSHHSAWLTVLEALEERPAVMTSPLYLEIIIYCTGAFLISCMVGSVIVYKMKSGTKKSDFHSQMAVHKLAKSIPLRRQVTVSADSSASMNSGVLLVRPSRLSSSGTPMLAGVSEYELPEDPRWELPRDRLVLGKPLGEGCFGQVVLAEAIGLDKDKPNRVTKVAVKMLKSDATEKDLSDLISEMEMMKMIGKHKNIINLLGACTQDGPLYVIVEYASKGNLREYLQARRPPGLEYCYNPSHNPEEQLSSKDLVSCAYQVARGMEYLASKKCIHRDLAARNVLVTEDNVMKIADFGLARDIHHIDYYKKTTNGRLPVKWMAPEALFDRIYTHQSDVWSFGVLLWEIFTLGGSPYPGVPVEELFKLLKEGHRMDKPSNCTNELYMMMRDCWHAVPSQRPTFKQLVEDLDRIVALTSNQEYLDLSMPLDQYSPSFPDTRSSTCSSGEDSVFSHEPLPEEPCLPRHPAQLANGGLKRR

Challenge: Report IC50 for COc1cc(CCc2cnc3[nH]c(-c4ccc(C(=O)NC(C)C)c(Cl)c4)cc3n2)cc(OC)c1 [Example 53] please.
Response given: < 100 nM

Challenge: And for COc1cc(CCc2cnc3[nH]c(-c4ccnc(C(=O)N(C)C)c4)cc3n2)cc(OC)c1 [Example 74] ?
Response given: < 100 nM

* * *

Molecular target: FGFR2 (Homo sapiens (Human))
Sequence (P21802 22-821): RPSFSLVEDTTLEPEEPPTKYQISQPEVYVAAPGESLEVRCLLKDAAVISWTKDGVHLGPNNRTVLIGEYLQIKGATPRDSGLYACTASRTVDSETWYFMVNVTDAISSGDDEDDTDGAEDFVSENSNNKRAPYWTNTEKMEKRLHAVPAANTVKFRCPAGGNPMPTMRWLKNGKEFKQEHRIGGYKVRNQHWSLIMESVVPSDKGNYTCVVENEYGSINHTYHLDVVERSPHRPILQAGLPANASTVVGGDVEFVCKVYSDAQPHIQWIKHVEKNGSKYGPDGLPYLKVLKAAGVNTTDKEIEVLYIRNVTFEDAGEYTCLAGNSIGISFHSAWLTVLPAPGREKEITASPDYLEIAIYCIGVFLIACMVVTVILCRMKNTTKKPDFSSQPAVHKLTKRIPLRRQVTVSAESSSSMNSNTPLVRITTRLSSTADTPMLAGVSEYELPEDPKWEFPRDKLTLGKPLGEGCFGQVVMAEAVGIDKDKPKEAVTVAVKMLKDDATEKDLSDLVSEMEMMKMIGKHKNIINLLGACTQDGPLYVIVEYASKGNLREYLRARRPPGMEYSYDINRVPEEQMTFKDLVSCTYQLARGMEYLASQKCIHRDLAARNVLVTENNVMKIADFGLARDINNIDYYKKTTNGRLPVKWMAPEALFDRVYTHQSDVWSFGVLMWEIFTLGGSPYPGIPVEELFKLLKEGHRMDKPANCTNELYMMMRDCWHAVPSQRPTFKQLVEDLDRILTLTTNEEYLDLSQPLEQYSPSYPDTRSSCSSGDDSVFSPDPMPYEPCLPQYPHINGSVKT
Assay: FGFR Enzymatic Assay (FGFR2);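 note: FRET read-out of peptide phosphorylation by the purified kinase, with enzyme-free blank and uninhibited enzyme as controls, potency from a variable-slope sigmoidal dose-response fit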
Assay type: biochemical
Conditions: enzyme 0.01 nM, ATP 100 μM; read-out: FGFR2 IC50
Test Readout: IC50

Illustrative cases are given below, each with its answer.
- Molecule: "COc1cc(CCc2cnc3[nH]c(-c4ccc(N5CCN(C)CC5=O)cc4)cc3n2)cc(OC)c1"
  Test Readout: "IC50"
  Value Measured: "< 100 nM"
- Molecule: "COc1cc(CCc2cnc3[nH]c(-c4ccc(CC#N)cc4)cc3n2)cc(OC)c1"
  Test Readout: "IC50"
  Value Measured: "< 100 nM"
- Molecule: "COc1cc(CCc2cnc3[nH]c(-c4ccc(N5CCC(O)CC5)cc4)cc3n2)cc(OC)c1"
  Test Readout: "IC50"
  Value Measured: "< 100 nM"

Challenge: What does the record list as IC50 for COc1cc(CCc2cnc3[nH]c(-c4ccnc(N5CCN(C)CC5)c4)cc3n2)cc(OC)c1 ?
Response given: < 100 nM

* * *

Target: UniProtKB P22607
Assay: biochemical
pIC50: −log10 of the molar value.
Quick reference for pIC50 among some molecules

- Molecule: "COc1cc(CCc2cnc3[nH]c(-c4ccc(N5CCCC5=O)nc4)cc3n2)cc(OC)c1"
  Measured On: "UniProtKB P22607"
  pIC50: "6.30 to 7.00"

Challenge: What does the record list as pIC50 for COc1cc(CCc2cnc3[nH]c(-c4ccc(N5CCN(C)CC5)nc4)cc3n2)cc(OC)c1 ?
Response given: 6.30 to 7.00

Challenge: How about COc1cc(CCc2cnc3[nH]c(-c4ccc(OC)nc4)cc3n2)cc(OC)c1 ?
Response given: 6.30 to 7.00

Challenge: Also need COc1cc(CCc2cnc3[nH]c(C4=CCN(C)CC4)cc3n2)cc(OC)c1 , thanks.
Response given: 6.30 to 7.00

Challenge: Now give it for CNC(=O)c1c(-c2ccc(N3CCN(C)CC3)cc2)[nH]c2ncc(CCc3cc(OC)cc(OC)c3)nc12 too.
Response given: 5.57 to 6.30

Challenge: Can you check COc1cc(CCc2cnc3[nH]c(-c4ccnc(C(=O)N(C)C)c4)cc3n2)cc(OC)c1 next?
Response given: 6.30 to 7.00
